assay: Circular dichroism helicity determination; format: physicochemical; conditions: percent helicity; free, unbound peptide 5 μM in 5 mM phosphate buffer, pH 7.4, 37° C.
No end group written: not given here.
Reported Endpoint: He (%) free
# number only, unit % dropped from output

For this sequence ( PVLDLFRELLNELLQKLK [compound 209] ), measured He (%) free is 54

# He (%) free of PVLDLFRELLNEWLEALKQKLK [compound 54] = 76

Consider PLDLFRELLNELLEALKQKLK [compound 85] . Its measured He (%) free is 58

---

assay: Circular dichroism helicity determination; format: physicochemical; conditions: percent helicity; peptide-SUV complexes (20:1 EPC:Chol., Ri=30 and Ri=50), 37° C.
No end group written: not given here.
Reported Endpoint: He (%) SUVs
Return type: number; implicit unit %.

Entry PVLELFENLLERLGDALQKKLK [peptide 148] , He (%) SUVs reported as 23

Sample PVLDLFRELLNELLEWLKQKLK [compound 3] ; He (%) SUVs observed: 80

// field: He (%) SUVs; key: Ac-PVLDLFRELLEELKQKLK-NH2 [compound 193] ; value = 87

Quick note, He (%) SUVs for PVLDLFRELLNELLQKLK [compound 209] landed at 67

Notebook: PVLDLFRELLNEGLEALKQKLK [compound 8] , He (%) SUVs read as 61

For record PVLDLFREWLNELLEALKQKLK [compound 37] the listed He (%) SUVs is 76

The substance listed as PVLELFENWLERLLDALQKKLK [compound 162] has a reported He (%) SUVs of 81
